Assay read-out IC50; system under study: DNA topoisomerase 2-alpha (Homo sapiens, UniProt P11388).
Sequence (P11388 whole entry): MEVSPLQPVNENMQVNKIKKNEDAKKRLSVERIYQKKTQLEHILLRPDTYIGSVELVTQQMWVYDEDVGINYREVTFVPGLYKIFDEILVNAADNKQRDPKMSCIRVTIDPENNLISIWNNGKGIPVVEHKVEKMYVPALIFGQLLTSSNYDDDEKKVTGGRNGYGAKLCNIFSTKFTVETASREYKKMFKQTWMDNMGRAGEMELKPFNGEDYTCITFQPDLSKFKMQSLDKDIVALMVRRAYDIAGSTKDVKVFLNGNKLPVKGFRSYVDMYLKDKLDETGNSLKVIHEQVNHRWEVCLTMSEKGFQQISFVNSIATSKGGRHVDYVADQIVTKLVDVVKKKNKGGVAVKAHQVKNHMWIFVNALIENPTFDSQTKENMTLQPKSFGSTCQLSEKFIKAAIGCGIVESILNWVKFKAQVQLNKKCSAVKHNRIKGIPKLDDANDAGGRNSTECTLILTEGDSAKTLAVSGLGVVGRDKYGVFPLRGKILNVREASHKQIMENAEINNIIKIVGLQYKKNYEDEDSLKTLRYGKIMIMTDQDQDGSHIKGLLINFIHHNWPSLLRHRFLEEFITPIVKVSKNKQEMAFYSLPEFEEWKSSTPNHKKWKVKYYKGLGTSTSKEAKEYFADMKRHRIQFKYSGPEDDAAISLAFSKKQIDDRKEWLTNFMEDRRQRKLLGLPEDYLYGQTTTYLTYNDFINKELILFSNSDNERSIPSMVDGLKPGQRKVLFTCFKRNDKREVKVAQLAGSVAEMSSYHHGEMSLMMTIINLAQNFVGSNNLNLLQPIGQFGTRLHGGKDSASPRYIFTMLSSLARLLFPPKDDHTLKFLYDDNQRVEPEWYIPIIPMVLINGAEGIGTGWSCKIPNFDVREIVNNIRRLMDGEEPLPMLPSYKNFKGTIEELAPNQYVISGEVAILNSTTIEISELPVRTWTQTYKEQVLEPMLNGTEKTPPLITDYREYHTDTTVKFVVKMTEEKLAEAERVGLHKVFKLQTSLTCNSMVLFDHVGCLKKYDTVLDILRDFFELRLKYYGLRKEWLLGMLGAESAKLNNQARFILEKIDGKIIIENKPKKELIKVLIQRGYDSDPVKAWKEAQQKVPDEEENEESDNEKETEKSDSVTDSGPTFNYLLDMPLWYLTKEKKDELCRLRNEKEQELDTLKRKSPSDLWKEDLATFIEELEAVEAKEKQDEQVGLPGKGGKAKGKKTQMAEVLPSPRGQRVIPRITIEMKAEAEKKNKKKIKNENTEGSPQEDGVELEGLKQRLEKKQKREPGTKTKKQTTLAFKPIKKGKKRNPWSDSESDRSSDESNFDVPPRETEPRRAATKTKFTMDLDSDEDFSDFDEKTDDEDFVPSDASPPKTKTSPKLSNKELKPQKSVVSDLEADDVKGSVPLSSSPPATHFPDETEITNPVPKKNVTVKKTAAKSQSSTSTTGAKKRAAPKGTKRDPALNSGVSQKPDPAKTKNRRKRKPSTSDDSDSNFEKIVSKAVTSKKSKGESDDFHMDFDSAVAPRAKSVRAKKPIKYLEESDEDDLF
assay.metric: IC50

>>> observed_value("Nc1ccc2c(c1)Oc1c(F)c(F)cc3c(=O)c(C(=O)O)cn-2c13")
"> 500 µM"
>>> observed_value("CN1CCN(c2c(F)cc3c(=O)c(C(=O)O)cn4c3c2Oc2cc(N)ccc2-4)CC1")
"3.9 to 7.8 µM"
>>> observed_value("N[C@H]1CCN(c2c(F)cc3c(=O)c(C(=O)O)cn4c3c2Oc2cc([N+](=O)[O-])ccc2-4)C1")
"1.95 to 3.9 µM"
>>> observed_value("Nc1ccc2c(c1)Oc1c(N3CCNCC3)c(F)cc3c(=O)c(C(=O)O)cn-2c13")
"1.95 to 3.9 µM"

Cited source: ChEMBL document CHEMBL4041482
